System: kochia (Kochia scoparia)
Test: Test C pre-/postemergence: kochia
Format: in vivo
Details: Postemergence, 125 g ai/ha; scale 0 to 100, 0 no effect, 100 complete control
parameter: Plant response rating, Kochia
// print number alone

Assign Plant response rating, Kochia to the following record: "CCOc1nn(-c2ccc(F)cc2)nc1Cc1ccnc(C(F)F)c1"
90

Please give the documented Plant response rating, Kochia of "Cc1nn(-c2ccc(F)cc2)nc1Oc1ccnc(C(F)(F)F)c1"
98

Name the recorded Plant response rating, Kochia of the compound listed here: "Cc1nn(-c2ccc(F)c(F)c2)nc1Oc1ccnc(C(F)(F)F)c1"
90

====

Tested on: wheat (Triticum aestivum)
Test: Test A pre-/postemergence: wheat
Format: in vivo
Details: Postemergence, 500 g ai/ha; visual rating on 0 to 100 scale (0 no effect, 100 complete control), approximately ten days
Reported Wheat plant response rating values are given for each entry in this list.
Please reply with the number alone, leaving off any unit.

molecule | Wheat plant response rating
Cc1nn(-c2ccc(C(F)(F)F)cn2)nc1Cn1nc(C(F)(F)F)cc1C | 0
Cc1nn(-c2cncc(C(F)(F)F)c2)nc1C(=O)c1cccc(C(F)(F)F)c1 | 10

Please list Wheat plant response rating recorded for the compound "Cc1nn(-c2ccc(F)cc2)nc1Cn1cnc(C(F)(F)F)c1"
30

Using the record for "COc1nn(-c2ccc(C(F)(F)F)cc2)nc1C(=O)c1ccnc(C(F)(F)F)c1" , state its measured Wheat plant response rating.
0

====

Test system: velvetleaf (Abutilon theophrasti)
Assay: Test C pre-/postemergence: velvetleaf
Type: in vivo
Settings: Preemergence, 62 g ai/ha; scale of 0 to 100, 0 is no effect, 100 is complete control
Overview of recorded Plant response rating, Velvetleaf for various compounds
Answer with the value's number alone.

Examples with their reported Plant response rating, Velvetleaf follow.
compound | Plant response rating, Velvetleaf
CCc1nn(-c2ccc(F)cc2)nc1Oc1ccnc(C(F)(F)F)c1 [Compound 166] | 0
CCOc1nn(-c2ccc(F)cc2)nc1Cc1ccnc(C(F)F)c1 [Compound 195] | 25
Cc1nn(-c2ccc(C(F)(F)F)cc2)nc1Cc1ccnc(C(F)(F)F)c1 [Compound 47] | 60
Cc1nn(-c2ccc(F)c(C(F)(F)F)c2)nc1Oc1ccnc(C(F)(F)F)c1 [Compound 147] | 55

Now consider a different compound.
Please give the documented Plant response rating, Velvetleaf of CCOc1nn(-c2ccc(Br)cc2)nc1Cc1ccnc(C(F)(F)F)c1 [Compound 189]
40

====

// Plant response rating, Lambsquarters lookup, one value per entry
System: lambsquarters (Chenopodium album)
Assay: Test C pre-/postemergence: lambsquarters
Type: in vivo
Details: Postemergence, 31 g ai/ha; scale 0 to 100 (0 no effect, 100 complete control)
Lab note: jot down the number only; don't add units.

molecule | Plant response rating, Lambsquarters
CCCc1nn(-c2ccc(C(F)(F)F)c(F)c2)nc1Oc1ccnc(C(F)(F)F)c1 | 80
Cc1nn(-c2ccc(F)cc2)nc1Cc1ccnc(C(F)(F)F)c1 | 95
Fc1ccc(-n2nc(Cc3ccnc(C(F)(F)F)c3)c(OCC(F)(F)F)n2)cc1 | 80

Please examine the following record next.
Recall the reported Plant response rating, Lambsquarters of "Cc1nn(-c2ccc(F)cc2)nc1Oc1ccnc(C(F)(F)F)c1" when tested on lambsquarters (Chenopodium album).
98

====

Test system: foxtail, giant (giant foxtail, Setaria faberii)
Experiment: Test A pre-/postemergence: foxtail, giant
Format: in vivo
Conditions: Preemergence, 500 g ai/ha; 0 to 100 scale, 0 is no effect, 100 is complete control
parameter: Plant response rating, Foxtail, Giant

Observe how each entry below is paired with its result.
molecule | endpoint.value
Cc1nn(-c2ccc(C(F)(F)F)nc2)nc1C(=O)c1cccc(C(F)(F)F)c1 | 90
CCc1nn(-c2ccc(C(F)(F)F)cn2)nc1Cc1cccc(C(F)(F)F)c1 | 100
Cc1nn(-c2ccc(F)cc2)nc1Oc1ccc(Cl)c(C(F)(F)F)c1 | 80
Cc1nn(-c2cccc(C(F)(F)F)c2)nc1Oc1cccc(C(F)(F)F)c1 | 50

Provide only the value of recorded Plant response rating, Foxtail, Giant for "Cc1nn(-c2ccc(F)cc2)nc1Cn1ccc(C(F)(F)F)n1"
50

Item "Cc1nn(-c2ccc(Cl)cc2)nc1C(=O)c1cccc(C(F)(F)F)c1" : provide Plant response rating, Foxtail, Giant
70

Output measured Plant response rating, Foxtail, Giant for this item: "Cc1nn(-c2ccc(Cl)cc2)nc1Oc1ccnc(C(F)(F)F)c1"
100

Specify Plant response rating, Foxtail, Giant for "Cc1nn(-c2ccc([N+](=O)[O-])cc2)nc1C(=O)c1cccc(C(F)(F)F)c1" and stop.
70

// fetch Plant response rating, Foxtail, Giant given entry "Cc1nn(-c2ccccc2[N+](=O)[O-])nc1C(=O)c1cccc(C(F)(F)F)c1"
0

Provide only the value of recorded Plant response rating, Foxtail, Giant for "Cc1nn(-c2ccc(C(F)(F)F)cc2)nc1Oc1ccc(Cl)c(C(F)(F)F)c1"
0

Give the reported Plant response rating, Foxtail, Giant for this compound. "Cc1nn(-c2ccc(F)cc2)nc1Oc1ccc(F)c(C(F)(F)F)c1"
100

Answer with reported Plant response rating, Foxtail, Giant of "Cc1nn(-c2ccc(C(F)(F)F)cc2)nc1Cn1ccc(C(F)(F)C(F)(F)F)n1"
100

Consider the compound "Cc1cc(Oc2nn(-c3ccc(F)cc3)nc2C)ccc1F" . State its measured Plant response rating, Foxtail, Giant.
0

Look up and state reported Plant response rating, Foxtail, Giant for "Cc1nn(-c2ccnc(F)c2)nc1C(=O)c1cccc(C(F)(F)F)c1"
100

These entries and their values trace back to patent US9302999B2.
